System: IGROV1 complex spheroids (HUVEC, MSC), viability % test/control
Test: Anticancer human tumor IGROV1 cell line growth inhibition [GQUAD];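 also: spheroids exposed to compounds for 7 days before readout; 100% = DMSO vehicle control viability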
Conditions: second compound 0.316 µM; first compound 1 µM; active compounds read low
Please assign class 0 whenever viability, T/C is at or above 10%, and class 1 whenever it is below.

Query string: Regarding COc1cc(C2c3cc4c(cc3C(OC3OC5COC(C)OC5C(O)C3O)C3COC(=O)C23)OCO4)cc(OC)c1O (stereo not given) + CN(C)c1ccc(Nc2c3ccc(NC(=O)CCN4CCCC4)cc3nc3cc(NC(=O)CCN4CCCC4)ccc23)cc1 , kindly confirm whether its viability, T/C is beneath 10%.
Result string: class 0

***
Query string: Regarding CC1COCCN1c1cc(C2(O)CC3CCC(C2)O3)c2cnn(-c3ccn[nH]3)c2n1 (stereo not given) + Cc1[nH]c2ccc(F)cc2c1-c1nc2c3cccnc3c3ncccc3c2[nH]1 , kindly confirm whether its viability, T/C is beneath 10%.
Result string: class 1

Query string: Regarding COc1ccc([C@@H](O)c2cc(-c3ncnc4cc(N5CCOCC5)ccc34)c(F)cc2Cl)nn1 + CN(C)c1ccc(Nc2c3ccc(NC(=O)CCN4CCCC4)cc3nc3cc(NC(=O)CCN4CCCC4)ccc23)cc1 , kindly confirm whether its viability, T/C is beneath 10%.
Result string: class 0

Query string: Regarding C=CCn1c(=O)c2cnc(Nc3ccc(N4CCN(C)CC4)cc3)nc2n1-c1cccc(C(C)(C)O)n1 + Cc1cnc(CNC(=O)c2c(=O)c3ccc(N4CCCN(C)CC4)nc3n3c2sc2ccccc23)cn1 , kindly confirm whether its viability, T/C is beneath 10%.
Result string: class 1

Query string: Regarding CC(C)n1c(=O)n(C)c2cnc3cc(F)c(-c4ccc(OCCCN5CCCCC5)nc4)cc3c21 + Cc1cnc(CNC(=O)c2c(=O)c3ccc(N4CCCN(C)CC4)nc3n3c2sc2ccccc23)cn1 , kindly confirm whether its viability, T/C is beneath 10%.
Result string: class 0

----------
System: IGROV1 complex spheroids (HUVEC, MSC), viability % test/control
Test: Anticancer human tumor IGROV1 cell line growth inhibition [GQUAD];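 also: spheroids exposed to compounds for 7 days before readout; 100% = DMSO vehicle control viability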
Conditions: second compound 0.316 µM; first compound 0.00316 µM; active compounds read low
Please assign label 0 whenever viability, T/C is at or above 30%, and label 1 whenever it is below.

Solved cases below.
Query string: Regarding Cc1[nH]c2ccccc2c1CCNCc1ccc(/C=C/C(=O)NO)cc1 + Cc1[nH]c2ccc(F)cc2c1-c1nc2c3cccnc3c3ncccc3c2[nH]1 , kindly confirm whether its viability, T/C is beneath 30%.
Result string: label 0

Query string: Regarding Cn1ncnc1[C@H]1c2n[nH]c(=O)c3cc(F)cc(c23)N[C@@H]1c1ccc(F)cc1 + Cc1cnc(CNC(=O)c2c(=O)c3ccc(N4CCCN(C)CC4)nc3n3c2sc2ccccc23)cn1 , kindly confirm whether its viability, T/C is beneath 30%.
Result string: label 1

***
Query string: Regarding CCc1c2c(nc3ccc(O)cc13)-c1cc3c(c(=O)n1C2)COC(=O)[C@]3(O)CC + Cc1cnc(CNC(=O)c2c(=O)c3ccc(N4CCCN(C)CC4)nc3n3c2sc2ccccc23)cn1 , kindly confirm whether its viability, T/C is beneath 30%.
Result string: label 1

Query string: Regarding CCc1c2c(nc3ccc(O)cc13)-c1cc3c(c(=O)n1C2)COC(=O)[C@]3(O)CC + Cc1[nH]c2ccc(F)cc2c1-c1nc2c3cccnc3c3ncccc3c2[nH]1 , kindly confirm whether its viability, T/C is beneath 30%.
Result string: label 1

Query string: Regarding Cc1[nH]c2ccccc2c1CCNCc1ccc(/C=C/C(=O)NO)cc1 + Cc1cnc(CNC(=O)c2c(=O)c3ccc(N4CCCN(C)CC4)nc3n3c2sc2ccccc23)cn1 , kindly confirm whether its viability, T/C is beneath 30%.
Result string: label 1

Query string: Regarding CC[C@@]1(O)C(=O)OCc2c1cc1n(c2=O)Cc2cc3c(CN(C)C)c(O)ccc3nc2-1 + CN(C)c1ccc(Nc2c3ccc(NC(=O)CCN4CCCC4)cc3nc3cc(NC(=O)CCN4CCCC4)ccc23)cc1 , kindly confirm whether its viability, T/C is beneath 30%.
Result string: label 0

----------
System: IGROV1 complex spheroids (HUVEC, MSC), viability % test/control
Assay: Anticancer human tumor IGROV1 cell line growth inhibition [GQUAD];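 also: spheroids exposed to compounds for 7 days before readout; 100% = DMSO vehicle control viability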
Conditions: second compound 1 µM; first compound 10 µM; active compounds read low
Form field: viability, T/C (one value per entry).

Solved entries:
So for CC(C)(O)C1CCC(Nc2ccc3ncc(-c4cccc(C(F)(F)F)c4)n3n2)CC1 (centres undefined) + Cc1cnc(CNC(=O)c2c(=O)c3ccc(N4CCCN(C)CC4)nc3n3c2sc2ccccc23)cn1 , the logged viability, T/C turned out to be 7.48%

So for Cc1cccc(N(C)C(=O)C2C(O)CCN2c2nc(C)cc(C(F)(F)F)c2C#N)c1 (centres undefined) + Cc1[nH]c2ccc(F)cc2c1-c1nc2c3cccnc3c3ncccc3c2[nH]1 , the logged viability, T/C turned out to be 2.68%

So for CC(=O)O[C@H]1C(=O)[C@@]2(C)[C@H]([C@H](OC(=O)c3ccccc3)[C@]3(O)C[C@H](OC(=O)[C@H](O)[C@@H](NC(=O)c4ccccc4)c4ccccc4)C(C)=C1C3(C)C)[C@]1(OC(C)=O)CO[C@@H]1C[C@@H]2O + Cc1[nH]c2ccc(F)cc2c1-c1nc2c3cccnc3c3ncccc3c2[nH]1 , the logged viability, T/C turned out to be 2.06%

So for C=CC(=O)N1CCN(c2nc(=O)n(-c3c(C)ccnc3C(C)C)c3nc(-c4c(O)cccc4F)c(F)cc23)C(C)C1 (centres undefined) + Cc1[nH]c2ccc(F)cc2c1-c1nc2c3cccnc3c3ncccc3c2[nH]1 , the logged viability, T/C turned out to be 2.01%

So for O=C(c1cc(Cc2n[nH]c(=O)c3ccccc23)ccc1F)N1CCN(C(=O)C2CC2)CC1 + Cc1cnc(CNC(=O)c2c(=O)c3ccc(N4CCCN(C)CC4)nc3n3c2sc2ccccc23)cn1 , the logged viability, T/C turned out to be 12.9%

***
So for O=C(c1cc(Cc2n[nH]c(=O)c3ccccc23)ccc1F)N1CCN(C(=O)C2CC2)CC1 + Cc1[nH]c2ccc(F)cc2c1-c1nc2c3cccnc3c3ncccc3c2[nH]1 , the logged viability, T/C turned out to be 4.53%

So for C#Cc1c(F)ccc2cc(O)cc(-c3ncc4c(N5CC6CCC(C5)N6)nc(OCC56CCCN5CC(F)C6)nc4c3F)c12 (centres undefined) + Cc1cnc(CNC(=O)c2c(=O)c3ccc(N4CCCN(C)CC4)nc3n3c2sc2ccccc23)cn1 , the logged viability, T/C turned out to be 7.91%

So for COc1ccc([C@@H](O)c2cc(-c3ncnc4cc(N5CCOCC5)ccc34)c(F)cc2Cl)nn1 + Cc1[nH]c2ccc(F)cc2c1-c1nc2c3cccnc3c3ncccc3c2[nH]1 , the logged viability, T/C turned out to be 5.1%

----------
Tested on: IGROV1 complex spheroids (HUVEC, MSC), viability % test/control
Experiment: Anticancer human tumor IGROV1 cell line growth inhibition [GQUAD]; active = viability on the fitted dose curve at most 10% of control; inactive = the rest;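 also: spheroids exposed to compounds for 7 days before readout; 100% = DMSO vehicle control viability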
Settings: second compound 10 µM; first compound 1 µM
Thanks in advance; please answer with one of these: active, inactive

Solved cases below.
Query string: I would be grateful if you could indicate the recorded call for COc1cccc2c1C(=O)c1c(O)c3c(c(O)c1C2=O)CC(O)(C(=O)CO)CC3OC1CC(N)C(O)C(C)O1 (centres undefined) + CN(C)c1ccc(Nc2c3ccc(NC(=O)CCN4CCCC4)cc3nc3cc(NC(=O)CCN4CCCC4)ccc23)cc1 .
Result string: active

Query string: I would be grateful if you could indicate the recorded call for CC(C)(O)C1CCC(Nc2ccc3ncc(-c4cccc(C(F)(F)F)c4)n3n2)CC1 (centres undefined) + Cc1cnc(CNC(=O)c2c(=O)c3ccc(N4CCCN(C)CC4)nc3n3c2sc2ccccc23)cn1 .
Result string: active

Query string: I would be grateful if you could indicate the recorded call for C=CC(=O)N1CCN(c2nc(=O)n(-c3c(C)ccnc3C(C)C)c3nc(-c4c(O)cccc4F)c(F)cc23)C(C)C1 (centres undefined) + Cc1cnc(CNC(=O)c2c(=O)c3ccc(N4CCCN(C)CC4)nc3n3c2sc2ccccc23)cn1 .
Result string: inactive

***
Query string: I would be grateful if you could indicate the recorded call for CC(=O)O[C@H]1C(=O)[C@@]2(C)[C@H]([C@H](OC(=O)c3ccccc3)[C@]3(O)C[C@H](OC(=O)[C@H](O)[C@@H](NC(=O)c4ccccc4)c4ccccc4)C(C)=C1C3(C)C)[C@]1(OC(C)=O)CO[C@@H]1C[C@@H]2O + Cc1[nH]c2ccc(F)cc2c1-c1nc2c3cccnc3c3ncccc3c2[nH]1 .
Result string: active

Query string: I would be grateful if you could indicate the recorded call for CC(C)(O)C1CCC(Nc2ccc3ncc(-c4cccc(C(F)(F)F)c4)n3n2)CC1 (centres undefined) + Cc1[nH]c2ccc(F)cc2c1-c1nc2c3cccnc3c3ncccc3c2[nH]1 .
Result string: active

Query string: I would be grateful if you could indicate the recorded call for O=C(c1cc(Cc2n[nH]c(=O)c3ccccc23)ccc1F)N1CCN(C(=O)C2CC2)CC1 + Cc1[nH]c2ccc(F)cc2c1-c1nc2c3cccnc3c3ncccc3c2[nH]1 .
Result string: active

Query string: I would be grateful if you could indicate the recorded call for C=CC(=O)N1CCN(c2nc(=O)n(-c3c(C)ccnc3C(C)C)c3nc(-c4c(O)cccc4F)c(F)cc23)C(C)C1 (centres undefined) + Cc1[nH]c2ccc(F)cc2c1-c1nc2c3cccnc3c3ncccc3c2[nH]1 .
Result string: active

Query string: I would be grateful if you could indicate the recorded call for CC(=O)O[C@H]1C(=O)[C@@]2(C)[C@H]([C@H](OC(=O)c3ccccc3)[C@]3(O)C[C@H](OC(=O)[C@H](O)[C@@H](NC(=O)c4ccccc4)c4ccccc4)C(C)=C1C3(C)C)[C@]1(OC(C)=O)CO[C@@H]1C[C@@H]2O + CN(C)c1ccc(Nc2c3ccc(NC(=O)CCN4CCCC4)cc3nc3cc(NC(=O)CCN4CCCC4)ccc23)cc1 .
Result string: active

Query string: I would be grateful if you could indicate the recorded call for CC1COCCN1c1cc(C2(S(C)(=N)=O)CC2)nc(-c2ccnc3[nH]ccc23)n1 (centres undefined) + Cc1[nH]c2ccc(F)cc2c1-c1nc2c3cccnc3c3ncccc3c2[nH]1 .
Result string: active
